Data provenance is ChEMBL document CHEMBL1961873.

# system-name: cGMP-dependent protein kinase 1 (Homo sapiens) (UniProt Q13976)
# Sequence (whole entry): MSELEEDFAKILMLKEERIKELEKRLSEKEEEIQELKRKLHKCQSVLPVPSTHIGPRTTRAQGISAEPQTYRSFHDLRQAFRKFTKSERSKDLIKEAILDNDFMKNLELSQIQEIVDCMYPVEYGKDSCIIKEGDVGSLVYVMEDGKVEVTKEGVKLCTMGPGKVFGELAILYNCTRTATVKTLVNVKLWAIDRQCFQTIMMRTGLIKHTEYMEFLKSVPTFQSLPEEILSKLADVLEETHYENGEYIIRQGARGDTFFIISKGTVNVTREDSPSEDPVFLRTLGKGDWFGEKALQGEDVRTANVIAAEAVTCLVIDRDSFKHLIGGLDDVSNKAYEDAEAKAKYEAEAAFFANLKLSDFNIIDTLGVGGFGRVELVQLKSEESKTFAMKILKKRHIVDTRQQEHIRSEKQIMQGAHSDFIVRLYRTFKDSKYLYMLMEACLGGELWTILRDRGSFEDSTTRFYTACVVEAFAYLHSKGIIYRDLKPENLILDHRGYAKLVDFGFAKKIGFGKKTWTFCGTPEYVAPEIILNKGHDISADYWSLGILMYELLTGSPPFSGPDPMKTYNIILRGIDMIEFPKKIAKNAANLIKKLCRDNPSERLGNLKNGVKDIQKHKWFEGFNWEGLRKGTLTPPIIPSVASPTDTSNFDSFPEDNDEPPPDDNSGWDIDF
# measurement-conditions: at 0.1 µM
# Description: GSK_PKIS: PRKG1 mean inhibition at 0.1 uM [Nanosyn]
measure: inhibition (%)

> print(dat)
                                   molecule                               system.name     measure   val
1  CNC(=O)c1cc(-c2ccc(F)cc2)cc(-c2ccc(S(=O)(=O)N3CCCC3)cc2)c1N  cGMP-dependent protein kinase 1 (Homo sapiens) (UniProt Q13976)  inhibition  1.61
2  COC(=O)Nc1nc2ccc(Oc3ccc(NC(=O)Nc4cccc(Cl)c4)cc3)cc2[nH]1  cGMP-dependent protein kinase 1 (Homo sapiens) (UniProt Q13976)  inhibition  0.03
3  CCn1c(-c2nonc2N)nc2c(C#CC(C)(C)O)nc(OC[C@H](N)c3ccccc3)cc21  cGMP-dependent protein kinase 1 (Homo sapiens) (UniProt Q13976)  inhibition  23.8
4  CCN1CCC(CC(=O)Nc2n[nH]c3nnc(-c4cccc(F)c4F)cc23)CC1  cGMP-dependent protein kinase 1 (Homo sapiens) (UniProt Q13976)  inhibition  1.07
5  COc1ccc2[nH]c3c4[nH]c5ccc(OC)cc5c4c4c(c3c2c1)C(=O)NC4=O  cGMP-dependent protein kinase 1 (Homo sapiens) (UniProt Q13976)  inhibition  6.13

* * *

# system-name: Serine/threonine-protein kinase 26 (Homo sapiens) (UniProt Q9P289)
# Sequence (Q9P289 2-416 limits assumed): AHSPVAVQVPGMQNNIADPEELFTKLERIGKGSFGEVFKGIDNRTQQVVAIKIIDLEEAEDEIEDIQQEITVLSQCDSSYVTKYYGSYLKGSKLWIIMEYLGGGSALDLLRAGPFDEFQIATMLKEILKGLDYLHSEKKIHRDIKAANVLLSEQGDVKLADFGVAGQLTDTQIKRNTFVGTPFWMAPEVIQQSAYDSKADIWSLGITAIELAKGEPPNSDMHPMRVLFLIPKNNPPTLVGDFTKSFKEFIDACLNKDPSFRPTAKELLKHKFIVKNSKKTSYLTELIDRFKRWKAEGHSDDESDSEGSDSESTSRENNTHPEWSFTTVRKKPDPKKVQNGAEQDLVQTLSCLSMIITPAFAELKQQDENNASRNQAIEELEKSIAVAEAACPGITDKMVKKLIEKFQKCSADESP
# measurement-conditions: at 0.1 µM
# Description: GSK_PKIS: MST4 mean inhibition at 0.1 uM [Nanosyn]
Measured inhibition, listed per entry.
measure: inhibition (%)

> print(dat)
                                    molecule     measure  unit.text    val
 1          CNC(=O)c1cncc(/C=C/c2ccccc2Cl)c1  inhibition          %   1.78
 2  COC(=O)Nc1nc2ccc(Oc3ccc(NC(=O)Nc4cccc(Cl)c4)cc3)cc2[nH]1  inhibition          %  -1.11
 3       N#Cc1c(NC(=O)c2ccc(F)cc2)sc2c1CCCC2  inhibition          %   -0.1
 4       COc1cc(/C=N/Nc2ncnc3[nH]ncc23)ccc1O  inhibition          %  -1.06
 5  COc1ccc2c(-c3ccnc(Nc4cccc(OC(F)(F)F)c4)n3)cnn2n1  inhibition          %   -1.2
 6             COc1ccc(-c2cc3c(N)ncnc3o2)cc1  inhibition          %   1.44
 7  COc1ccc(CNC(=O)c2ccc(-c3cc(-c4nnc(C)o4)ccc3C)cc2)cc1  inhibition          %   3.07
 8  CN(C)CCOc1ccc(-c2nc(-c3ccncc3)c(-c3ccc4c(c3)CC/C4=N\O)[nH]2)cc1  inhibition          %  -1.19
 9  O=C(Nc1n[nH]c2cc(-c3ccc(F)cc3)ccc12)C1CC1  inhibition          %  -1.43
10  Clc1ccc(-c2nn3ncccc3c2-c2ccnc(Nc3ccccc3)n2)cc1  inhibition          %    1.4
11  CCCN1CCC(c2ccc(Nc3nc(Nc4cc(F)ccc4C(N)=O)c4cc[nH]c4n3)c(OC)c2)CC1  inhibition          %  -0.72
